Biological target: Gastrin/cholecystokinin type B receptor (Homo sapiens, UniProt P32239)
Sequence (P32239 whole entry): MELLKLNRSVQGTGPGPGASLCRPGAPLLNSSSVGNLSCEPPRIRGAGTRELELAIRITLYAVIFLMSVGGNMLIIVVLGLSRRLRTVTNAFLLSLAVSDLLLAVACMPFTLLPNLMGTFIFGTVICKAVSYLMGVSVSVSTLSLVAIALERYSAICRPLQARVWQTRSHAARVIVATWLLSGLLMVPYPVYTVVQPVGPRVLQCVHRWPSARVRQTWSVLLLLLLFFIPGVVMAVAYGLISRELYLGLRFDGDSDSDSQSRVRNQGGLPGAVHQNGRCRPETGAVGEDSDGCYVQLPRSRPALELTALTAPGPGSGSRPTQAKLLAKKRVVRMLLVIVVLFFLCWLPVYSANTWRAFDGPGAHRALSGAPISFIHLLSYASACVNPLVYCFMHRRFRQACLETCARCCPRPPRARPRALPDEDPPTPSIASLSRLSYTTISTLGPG
Experiment: Displacement of [177Lu] PP-F11N from CCK2R (unknown origin) transfected in A431 cells incubated for 1 hr at 4 degree C followed by compound washout with PBS buffer using Lu3+ labeled compound by Cobra-2 gamma counter method
Format: cell-based
*1 amine or outer side, *2 acyl side, *3 side chain or, on linkers, in order; H or OH if unused. Where a SMILES comes first, the peptide text is derived from it. [ ]: non-standard residue; d: D form. The star is where a group is joined. DOTA = O=C(O)CN1CCN(CC(=O)O)CCN(CC(=O)*)CCN(CC(=O)O)CC1; X5 = C[C@@H](C(=O)[*:2])n1cc([C@@H](CCC(=O)O)N[*:1])nn1; Nle = CCCC[C@H](N)C(=O)O
Measured parameter: pIC50
Scale: negative log10 of molar concentration, which is what pIC50 denotes.

QUERY: Tell me the measured pIC50 of CCCC[C@H](NC(=O)[C@H](Cc1c[nH]c2ccccc12)NC(=O)CNC(=O)[C@H](Cc1ccc(O)cc1)NC(=O)[C@H](C)NC(=O)[C@@H](CCC(=O)O)NC(=O)CN1CCN(CC(=O)O)CCN(CC(=O)O)CCN(CC(=O)O)CC1)C(=O)N[C@@H](CC(=O)O)C(=O)N[C@@H](Cc1ccccc1)C(N)=O ({DOTA}-[dE]AYGW[Nle]DF-NH2) , please.
RESULT: 7.81

QUERY: Tell me the measured pIC50 of `CCCC[C@H](NC(=O)[C@H](Cc1c[nH]c2ccccc12)NC(=O)CNC(=O)C[C@H](Cc1ccc(O)cc1)NC(=O)[C@H](C)NC(=O)[C@@H](CCC(=O)O)NC(=O)CN1CCN(CC(=O)O)CCN(CC(=O)O)CCN(CC(=O)O)CC1)C(=O)N[C@@H](CC(=O)O)C(=O)N[C@@H](Cc1ccccc1)C(N)=O` , please.
RESULT: 7.59

QUERY: Tell me the measured pIC50 of CCCC[C@H](NC(=O)[C@H](Cc1c[nH]c2ccccc12)NC(=O)CNC(=O)[C@H](Cc1ccc(O)cc1)NC(=O)[C@H](C)n1cc([C@@H](CCC(=O)O)NC(=O)CN2CCN(CC(=O)O)CCN(CC(=O)O)CCN(CC(=O)O)CC2)nn1)C(=O)N[C@@H](CC(=O)O)C(=O)N[C@@H](Cc1ccccc1)C(N)=O ({DOTA}-[X5]YGW[Nle]DF-NH2) , please.
RESULT: 8.10

====

test: Half life in human plasma at 7.5 MBq measured up to 24 hrs at 37 degree C using 177Lu labeled compound by gamma-HPLC analysis; type: ADME, cell-free
*1 amine or outer side, *2 acyl side, *3 side chain or, on linkers, in order; H or OH if unused. Where a SMILES comes first, the peptide text is derived from it. [ ]: non-standard residue; d: D form. The star is where a group is joined. X4 = C[C@H](N[*:1])c1cn([C@@H](Cc2ccc(O)cc2)C(=O)[*:2])nn1; DOTA = O=C(O)CN1CCN(CC(=O)O)CCN(CC(=O)*)CCN(CC(=O)O)CC1; Nle = CCCC[C@H](N)C(=O)O
Task for the reader: assign each of the following compounds its reported half-life at 7.5 MBq.
Answer format: numeric, h implied, no suffix.

QUERY: Tell me the measured half-life at 7.5 MBq of `CCCC[C@H](NC(=O)[C@H](Cc1c[nH]c2ccccc12)NC(=O)CNC(=O)[C@H](Cc1ccc(O)cc1)NC(=O)[C@H](C)NC(=O)[C@@H](CCC(=O)O)NC(=O)CN1CCN(CC(=O)O)CCN(CC(=O)O)CCN(CC(=O)O)CC1)C(=O)N[C@@H](CC(=O)O)C(=O)N[C@@H](Cc1ccccc1)c1c[nH]nn1` , please.
RESULT: 34.9

QUERY: Tell me the measured half-life at 7.5 MBq of CCCC[C@H](NC(=O)[C@H](Cc1c[nH]c2ccccc12)NC(=O)CNC(=O)[C@H](Cc1ccc(O)cc1)n1cc([C@H](C)NC(=O)[C@@H](CCC(=O)O)NC(=O)CN2CCN(CC(=O)O)CCN(CC(=O)O)CCN(CC(=O)O)CC2)nn1)C(=O)N[C@@H](CC(=O)O)C(=O)N[C@@H](Cc1ccccc1)C(N)=O ({DOTA}-[dE][X4]GW[Nle]DF-NH2) , please.
RESULT: 51.4

QUERY: Tell me the measured half-life at 7.5 MBq of CCCC[C@H](NC(=O)[C@H](Cc1c[nH]c2ccccc12)NC(=O)CNC(=O)[C@H](Cc1ccc(O)cc1)NC(=O)[C@H](C)NC(=O)[C@@H](CCC(=O)O)NC(=O)CN1CCN(CC(=O)O)CCN(CC(=O)O)CCN(CC(=O)O)CC1)C(=O)N[C@@H](CC(=O)O)C(=O)N[C@@H](Cc1ccccc1)C(N)=O ({DOTA}-[dE]AYGW[Nle]DF-NH2) , please.
RESULT: 3.9

====

assay: Half life in human plasma at 7.5 MBq measured up to 24 hrs at 37 degree C using 177Lu labeled compound by gamma-HPLC analysis; type: ADME, cell-free
*1 amine or outer side, *2 acyl side, *3 side chain or, on linkers, in order; H or OH if unused. Where a SMILES comes first, the peptide text is derived from it. [ ]: non-standard residue; d: D form. The star is where a group is joined. DOTA = O=C(O)CN1CCN(CC(=O)O)CCN(CC(=O)*)CCN(CC(=O)O)CC1; X5 = C[C@@H](C(=O)[*:2])n1cc([C@@H](CCC(=O)O)N[*:1])nn1; X1 = O=C(Cn1cc([C@H](Cc2ccc(O)cc2)N[*:1])nn1)[*:2]; Nle = CCCC[C@H](N)C(=O)O
Measured parameter: log10 of half-life at 7.5 MBq (log10 of the value in h)
Hi team, quick reminder: these entries are log10 of half-life at 7.5 MBq (h).

QUERY: Tell me the measured log10 of half-life at 7.5 MBq of `CCCC[C@H](NC(=O)[C@H](Cc1c[nH]c2ccccc12)NC(=O)CNC(=O)[C@H](Cc1ccc(O)cc1)NC(=O)[C@H](C)NC(=O)[C@@H](CCC(=O)O)NC(=O)CN1CCN(CC(=O)O)CCN(CC(=O)O)CCN(CC(=O)O)CC1)C(=O)N[C@@H](CC(=O)O)c1cn([C@@H](Cc2ccccc2)C(N)=O)nn1` , please.
RESULT: 1.56

QUERY: Tell me the measured log10 of half-life at 7.5 MBq of CCCC[C@H](NC(=O)[C@H](Cc1c[nH]c2ccccc12)NC(=O)Cn1cc([C@H](Cc2ccc(O)cc2)NC(=O)[C@H](C)NC(=O)[C@@H](CCC(=O)O)NC(=O)CN2CCN(CC(=O)O)CCN(CC(=O)O)CCN(CC(=O)O)CC2)nn1)C(=O)N[C@@H](CC(=O)O)C(=O)N[C@@H](Cc1ccccc1)C(N)=O ({DOTA}-[dE]A[X1]W[Nle]DF-NH2) , please.
RESULT: 0.41

QUERY: Tell me the measured log10 of half-life at 7.5 MBq of CCCC[C@H](NC(=O)[C@H](Cc1c[nH]c2ccccc12)NC(=O)CNC(=O)[C@H](Cc1ccc(O)cc1)NC(=O)[C@H](C)n1cc([C@@H](CCC(=O)O)NC(=O)CN2CCN(CC(=O)O)CCN(CC(=O)O)CCN(CC(=O)O)CC2)nn1)C(=O)N[C@@H](CC(=O)O)C(=O)N[C@@H](Cc1ccccc1)C(N)=O ({DOTA}-[X5]YGW[Nle]DF-NH2) , please.
RESULT: 0.89

QUERY: Tell me the measured log10 of half-life at 7.5 MBq of `CCCC[C@H](NC(=O)[C@H](Cc1c[nH]c2ccccc12)NC(=O)CCNC(=O)[C@H](Cc1ccc(O)cc1)NC(=O)[C@H](C)NC(=O)[C@@H](CCC(=O)O)NC(=O)CN1CCN(CC(=O)O)CCN(CC(=O)O)CCN(CC(=O)O)CC1)C(=O)N[C@@H](CC(=O)O)C(=O)N[C@@H](Cc1ccccc1)C(N)=O` , please.
RESULT: 0.93

QUERY: Tell me the measured log10 of half-life at 7.5 MBq of `CCCC[C@H](NC(=O)[C@H](Cc1c[nH]c2ccccc12)NC(=O)CNC(=O)[C@H](Cc1ccc(O)cc1)NC(=O)[C@H](C)NC(=O)[C@@H](CCC(=O)O)NC(=O)CN1CCN(CC(=O)O)CCN(CC(=O)O)CCN(CC(=O)O)CC1)c1cn([C@@H](CC(=O)O)C(=O)N[C@@H](Cc2ccccc2)C(N)=O)nn1` , please.
RESULT: 2.06
